Below, each entry is listed with its recorded Fu.
Tested on: Sepia officinalis
Assay: Binding affinity to Sepia officinalis melanin assessed as fraction unbound at 2 uM after 2 hrs by high-throughput screening assay
ENDPOINT_LABEL: Fu (%)

- Nc1nc2ccc(OC(F)(F)F)cc2s1: 48
- c1ccc2c(c1)oc1c(Nc3ccncc3)ncnc12: 0.1
- CN(C)c1nc2ccc(Cl)cc2s1: 0.2
- CCCCN1CCC(CCC(=O)c2cc(Cl)c(N)cc2OC)CC1: 0.8
- Cc1ccccc1Nc1ncnc2c1oc1ccccc12: 34
- COc1cc(N)c(Cl)cc1C(=O)CCC1CCNCC1: 34
